Ref: patent US20110144014A1

- TARGET_UNDER_TEST: IGF-1R (Homo sapiens)
- Sequence (P08069 31-736 limits assumed): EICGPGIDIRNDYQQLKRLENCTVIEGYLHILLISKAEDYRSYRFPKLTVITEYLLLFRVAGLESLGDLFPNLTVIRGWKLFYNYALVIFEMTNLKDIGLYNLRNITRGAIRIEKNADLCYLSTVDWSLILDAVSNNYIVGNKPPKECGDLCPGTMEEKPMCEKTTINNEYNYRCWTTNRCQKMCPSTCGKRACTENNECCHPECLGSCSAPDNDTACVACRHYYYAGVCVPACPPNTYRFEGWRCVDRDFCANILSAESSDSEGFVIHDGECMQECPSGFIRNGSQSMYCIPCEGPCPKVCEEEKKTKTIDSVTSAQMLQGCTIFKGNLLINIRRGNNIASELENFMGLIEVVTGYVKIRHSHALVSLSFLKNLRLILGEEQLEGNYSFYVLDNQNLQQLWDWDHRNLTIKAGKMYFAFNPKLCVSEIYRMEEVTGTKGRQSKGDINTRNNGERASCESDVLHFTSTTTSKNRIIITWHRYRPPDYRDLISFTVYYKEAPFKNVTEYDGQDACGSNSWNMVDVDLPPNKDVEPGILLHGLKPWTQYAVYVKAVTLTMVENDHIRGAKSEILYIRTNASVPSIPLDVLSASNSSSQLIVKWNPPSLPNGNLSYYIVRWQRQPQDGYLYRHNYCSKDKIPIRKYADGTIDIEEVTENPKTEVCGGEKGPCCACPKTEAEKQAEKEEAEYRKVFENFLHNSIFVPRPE
- Sequence (P08069 741-1367 limits assumed): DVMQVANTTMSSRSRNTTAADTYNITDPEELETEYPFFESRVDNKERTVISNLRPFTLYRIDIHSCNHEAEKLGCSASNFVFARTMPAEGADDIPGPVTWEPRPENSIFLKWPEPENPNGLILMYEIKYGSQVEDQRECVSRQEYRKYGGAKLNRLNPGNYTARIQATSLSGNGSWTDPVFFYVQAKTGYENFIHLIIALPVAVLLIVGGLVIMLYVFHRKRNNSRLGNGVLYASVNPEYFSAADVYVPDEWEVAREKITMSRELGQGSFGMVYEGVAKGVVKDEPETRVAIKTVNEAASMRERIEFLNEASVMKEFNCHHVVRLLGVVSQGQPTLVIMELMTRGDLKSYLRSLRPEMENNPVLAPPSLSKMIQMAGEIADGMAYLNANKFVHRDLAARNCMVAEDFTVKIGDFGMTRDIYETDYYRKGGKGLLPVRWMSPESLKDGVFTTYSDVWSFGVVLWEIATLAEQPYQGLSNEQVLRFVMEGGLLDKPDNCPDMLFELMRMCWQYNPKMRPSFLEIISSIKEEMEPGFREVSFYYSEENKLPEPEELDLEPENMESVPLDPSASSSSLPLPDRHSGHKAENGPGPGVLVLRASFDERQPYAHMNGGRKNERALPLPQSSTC
- PROCEDURE_DETAILS: IGF-1 induced proliferation of MCF-7 breast carcinoma cells (3H-thymidine)
- Format: cell-based
- Design: MCF-7 breast carcinoma cells; endogenous in cells; host or cells: MCF-7
- EXPERIMENTAL_PARAMETERS: MCF7; MCF-7; IGF-1 50 ng/ml; read-out: Emax, in vitro cell proliferation assay
Where no end group is shown, it is not given here.
OBSERVABLE: Emax (%)

KERTVISNLR [APG-206] = 60
RTNASVPSI [APG-203] = 45

A = ENFLHLLLA [APG-205]
B = IRKYADGTI [APG-204]
Returns: the label, A or B , whose recorded Emax is the lower number. Please indicate the selected item by its label.
A

---

- TARGET_UNDER_TEST: IGF-1R (Rattus norvegicus)
- Construct: from tissue; host or cells: aorta
- Sequence (P24062 31-1370): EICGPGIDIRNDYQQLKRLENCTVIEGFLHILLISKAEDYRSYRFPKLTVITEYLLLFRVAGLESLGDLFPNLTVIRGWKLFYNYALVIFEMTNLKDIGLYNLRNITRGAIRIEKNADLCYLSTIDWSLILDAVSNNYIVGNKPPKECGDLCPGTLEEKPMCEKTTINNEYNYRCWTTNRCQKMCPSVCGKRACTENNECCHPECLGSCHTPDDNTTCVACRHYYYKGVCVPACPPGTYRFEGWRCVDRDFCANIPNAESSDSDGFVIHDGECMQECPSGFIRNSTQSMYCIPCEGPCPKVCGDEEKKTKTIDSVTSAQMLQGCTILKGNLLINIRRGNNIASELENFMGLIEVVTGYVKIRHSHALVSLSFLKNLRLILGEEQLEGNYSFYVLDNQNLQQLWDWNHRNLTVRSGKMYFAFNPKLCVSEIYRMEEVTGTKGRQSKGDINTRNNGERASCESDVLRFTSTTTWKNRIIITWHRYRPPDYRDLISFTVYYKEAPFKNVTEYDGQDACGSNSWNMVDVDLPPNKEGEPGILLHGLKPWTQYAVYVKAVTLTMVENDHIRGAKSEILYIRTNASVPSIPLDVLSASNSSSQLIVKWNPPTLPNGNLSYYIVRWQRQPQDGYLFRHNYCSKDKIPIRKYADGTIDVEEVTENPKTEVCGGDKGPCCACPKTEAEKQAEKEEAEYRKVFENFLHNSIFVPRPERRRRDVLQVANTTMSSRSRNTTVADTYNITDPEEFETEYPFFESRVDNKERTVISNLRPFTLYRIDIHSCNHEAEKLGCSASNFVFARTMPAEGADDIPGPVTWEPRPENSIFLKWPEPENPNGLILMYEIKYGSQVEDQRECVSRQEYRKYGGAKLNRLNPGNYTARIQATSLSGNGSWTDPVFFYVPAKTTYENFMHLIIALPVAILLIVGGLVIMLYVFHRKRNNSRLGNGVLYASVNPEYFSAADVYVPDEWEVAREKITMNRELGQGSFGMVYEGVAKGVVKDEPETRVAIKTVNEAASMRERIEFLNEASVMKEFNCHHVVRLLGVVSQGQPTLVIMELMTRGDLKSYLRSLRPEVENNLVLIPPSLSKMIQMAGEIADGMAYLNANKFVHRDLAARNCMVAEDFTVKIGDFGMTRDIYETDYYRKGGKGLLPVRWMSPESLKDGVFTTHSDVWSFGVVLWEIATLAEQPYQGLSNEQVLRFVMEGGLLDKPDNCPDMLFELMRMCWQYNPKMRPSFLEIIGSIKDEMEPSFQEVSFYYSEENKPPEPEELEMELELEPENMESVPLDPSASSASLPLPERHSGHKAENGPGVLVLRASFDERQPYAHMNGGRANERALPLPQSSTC
- PROCEDURE_DETAILS: Ex vivo IGF-1-induced vasorelaxation of rat aorta
- EXPERIMENTAL_PARAMETERS: IGF-1 25 ng/ml; phenylephrine pre-constriction; read-out: Emax, inhibition of ex vivo IGF-1-induced vasorelaxation of rat aorta
Where no end group is shown, it is not given here.
OBSERVABLE: Emax (%)

IRKYADGTI [APG-204] = 25

I = ENFLHLLLA [APG-205]
II = RTNASVPSI [APG-203]
III = KERTVISNLR [APG-206]
Arrange these 3 sequences in increasing order of Emax. When ranking, write the labels in the order the request describes.
I, II, III
(I: 25%, II: 50%, III: 75%)

---

- TARGET_UNDER_TEST: IGF-1R (Homo sapiens)
- PROCEDURE_DETAILS: IGF-1 induced proliferation of HepG2 hepatocarcinoma cells (3H-thymidine)
- Assay type: cell-based
- Design: HepG2 hepatocarcinoma cells; endogenous in cells; host or cells: HepG2
- EXPERIMENTAL_PARAMETERS: HepG2; IGF-1 50 ng/ml; read-out: EC50, in vitro cell proliferation assay
Where no end group is shown, it is not given here.
OBSERVABLE: EC50

Fill in: EC50 of RTNASVPSI [APG-203] is ___
< 0.1 nM

---

- TARGET_UNDER_TEST: IL-1R/IL-1RacP (Homo sapiens, UniProt P14778+Q9NPH3)
- Construct: TF-1 cells; endogenous in cells; host or cells: TF-1
- Sequence (P14778 18-569): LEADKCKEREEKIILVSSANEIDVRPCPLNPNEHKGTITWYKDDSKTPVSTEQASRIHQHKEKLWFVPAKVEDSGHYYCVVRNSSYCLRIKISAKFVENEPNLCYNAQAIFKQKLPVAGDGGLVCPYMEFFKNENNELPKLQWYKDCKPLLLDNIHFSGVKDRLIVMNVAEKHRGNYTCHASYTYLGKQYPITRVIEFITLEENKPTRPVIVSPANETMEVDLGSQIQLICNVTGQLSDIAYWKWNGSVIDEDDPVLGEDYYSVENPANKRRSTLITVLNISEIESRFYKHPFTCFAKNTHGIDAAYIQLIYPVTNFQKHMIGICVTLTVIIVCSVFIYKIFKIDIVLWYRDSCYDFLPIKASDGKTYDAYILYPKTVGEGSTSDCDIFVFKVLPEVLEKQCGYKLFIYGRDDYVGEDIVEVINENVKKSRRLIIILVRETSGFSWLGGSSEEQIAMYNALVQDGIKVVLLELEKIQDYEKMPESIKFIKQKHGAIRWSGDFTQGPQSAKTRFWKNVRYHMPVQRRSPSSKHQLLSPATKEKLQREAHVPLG
- Sequence (Q9NPH3 21-570): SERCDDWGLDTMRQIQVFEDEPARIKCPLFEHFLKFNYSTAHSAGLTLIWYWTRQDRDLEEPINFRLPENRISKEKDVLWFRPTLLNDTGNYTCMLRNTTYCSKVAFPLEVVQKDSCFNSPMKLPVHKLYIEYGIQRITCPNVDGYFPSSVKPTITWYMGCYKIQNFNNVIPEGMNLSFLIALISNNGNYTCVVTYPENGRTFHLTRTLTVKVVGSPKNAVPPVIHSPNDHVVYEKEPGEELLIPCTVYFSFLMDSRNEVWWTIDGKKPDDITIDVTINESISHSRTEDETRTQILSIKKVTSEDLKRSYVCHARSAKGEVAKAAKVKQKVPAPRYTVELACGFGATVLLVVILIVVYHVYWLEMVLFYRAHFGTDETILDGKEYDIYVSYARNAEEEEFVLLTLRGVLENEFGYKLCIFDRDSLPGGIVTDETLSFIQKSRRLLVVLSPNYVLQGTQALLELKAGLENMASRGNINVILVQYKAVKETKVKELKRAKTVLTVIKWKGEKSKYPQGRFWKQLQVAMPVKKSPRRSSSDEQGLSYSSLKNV
- PROCEDURE_DETAILS: IL-1β-induced proliferation in TF-1 cells
- Assay type: cell-based
- EXPERIMENTAL_PARAMETERS: TF-1, Table 11; read-out: Emax (%), IL-1β-induced TF-1 proliferation
Where a SMILES comes first, the peptide text is derived from it. [ ]: non-standard residue; d: D form. Orn = NCCC[C@H](N)C(=O)O
OBSERVABLE: Emax (%)

These recorded examples may help you get a feel for the data.
CC(C)C[C@@H](NC(=O)[C@@H](CCC(=O)O)NC(=O)[C@H]1CCCN1C(=O)[C@H](NC(=O)[C@@H](Cc1c[nH]c2ccccc12)NC(=O)[C@H](N)CCCNC(=N)N)[C@H](C)O)C(=O)O [API-101.128, RWTPEL] (H-[dR][dW][dT][dP][dE][dL]-OH; N-terminus and C-terminus assumed) = 100
CC(C)C[C@@H](NC(=O)[C@@H](CCC(=O)O)NC(=O)[C@H]1CCCN1C(=O)[C@H](NC(=O)[C@@H](Cc1ccccc1)NC(=O)[C@H](N)CCCNC(=N)N)[C@H](C)O)C(=O)O [API-101.132, RFTPEL] (H-[dR][dF][dT][dP][dE][dL]-OH; N-terminus and C-terminus assumed) = 35

A = CC(C)C[C@@H](NC(=O)[C@@H](CCC(=O)O)NC(=O)[C@H]1CCCN1C(=O)[C@H](NC(=O)[C@@H](Cc1ccc(O)cc1)NC(=O)[C@@H](N)CCCNC(=N)N)[C@H](C)O)C(=O)O [API-101.135, *RYTPEL]
B = CC(C)C[C@H](NC(=O)[C@H](CCC(=O)O)NC(=O)[C@@H]1CCCN1C(=O)[C@@H](NC(=O)[C@H](Cc1ccc(O)cc1)NC(=O)[C@@H](N)CCCN)[C@@H](C)O)C(=O)O [API-101.126, XYTPEL (X = Ornithine)] (H-[Orn]YTPEL-OH)
C = CC(C)C[C@@H](NC(=O)[C@@H](CCC(=O)O)NC(=O)[C@H]1CCCN1C(=O)[C@H](NC(=O)[C@@H](Cc1ccc(O)cc1)NC(=O)[C@H](N)CCCNC(N)=O)[C@H](C)O)C(=O)O [API-101.134, XYTPEL (X = Citrulline)]
Hey, quick one: sort these by Emax, largest value first please. Kindly provide the labels arranged according to the requested ordering.
A, C, B
